From: patent US20200397913A1

Biological target: T1, AXLECDHis (extracellular domain of human AXL) (Homo sapiens, UniProt P30530)
T1 construct: the extracellular domain (ECD) of human AXL (aa 1-447) with a C-terminal His tag (AXLECDHis); His tag (C); made in house; host or cells: HEK-293F
T1 sequence (P30530 26-447): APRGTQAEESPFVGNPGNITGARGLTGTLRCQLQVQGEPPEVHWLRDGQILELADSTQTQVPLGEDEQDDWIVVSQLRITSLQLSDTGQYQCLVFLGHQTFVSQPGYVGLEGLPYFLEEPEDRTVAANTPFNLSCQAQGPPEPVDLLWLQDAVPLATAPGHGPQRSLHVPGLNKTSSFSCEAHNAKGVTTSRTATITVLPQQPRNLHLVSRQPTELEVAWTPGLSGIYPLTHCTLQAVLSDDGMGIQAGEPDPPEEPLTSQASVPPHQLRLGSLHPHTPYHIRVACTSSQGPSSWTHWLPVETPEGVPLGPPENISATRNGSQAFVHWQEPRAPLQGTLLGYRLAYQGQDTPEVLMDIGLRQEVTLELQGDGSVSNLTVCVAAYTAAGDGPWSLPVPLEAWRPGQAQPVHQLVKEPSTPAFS
Test: Binding affinity by Bio-Layer Interferometry (Octet)
Conditions: soluble AXLECDHis, 30° C, 1:1 model
// reported Kdis per item
Kindly answer with a numeric value in s⁻¹, unit omitted.

The examples below pair each entry with its known result.
IgG1-AXL-148: human IgG1,κ anti-AXL antibody, VH SEQ ID NO:5, VL SEQ ID NO:6; Ig2 domain binding (antibody, V domains shown, homo sapiens) VH: EVQLLESGGGLVQPGGSLRLSCAASGFTFSSYAMTWVRQAPGKGLEWVSAISISGGSTFYADSVKGRFTISRDNSKNTLYLQMNSLRAEDTAVYYCRGYSGYVYDAFDFWGQGTMVTVSS VL: DIQMTQSPSSLSASVGDRVTITCRASQGISNWLAWYQQKPEKAPKSLIYAASSLQSGVPSRFSGSGSGTDFTLTISSLQPEDFATYYCQQYNSYPLTFGGGTKVEIK: 0.0044
IgG1-AXL-183-N52Q: point mutant of IgG1-AXL-183, VH SEQ ID NO:17, VL SEQ ID NO:18 (antibody, V domains shown, homo sapiens) VH: QVQLQQWGAGLLKPSETLSLTCAVYGGSFSGYYWSWIRQPPGKGLEWIGEIQQSGSTNYNPSLKSRVTISVDTSKNQFSLKLSSVTAADTSVYYCASGNWDHFFDYWGQGTLVTVSS VL: DIQMTQSPSSVSASVGDRVTITCRASQGISSWLAWYQHKPGKAPKLLIYATSSLQSGVTSRFSGSGSGTDFTLTISSLQPEDFATYYCQQAKSFPWTFGQGTKVEIK: 0.001

Here is another molecule to look at.
Quickly give me recorded Kdis for IgG1-AXL-183: human IgG1,κ anti-AXL antibody, VH SEQ ID NO:16, VL SEQ ID NO:18; FN1 domain binding (antibody, V domains shown, homo sapiens) VH: QVQLQQWGAGLLKPSETLSLTCAVYGGSFSGYYWSWIRQPPGKGLEWIGEINQSGSTNYNPSLKSRVTISVDTSKNQFSLKLSSVTAADTSVYYCASGNWDHFFDYWGQGTLVTVSS VL: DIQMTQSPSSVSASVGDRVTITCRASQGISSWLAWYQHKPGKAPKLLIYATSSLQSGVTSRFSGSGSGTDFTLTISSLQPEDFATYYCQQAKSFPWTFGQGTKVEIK 0.00042
